Molecular target: VLA-4 (Homo sapiens, UniProt P05556+P13612)
Sequence (P13612 34-1032): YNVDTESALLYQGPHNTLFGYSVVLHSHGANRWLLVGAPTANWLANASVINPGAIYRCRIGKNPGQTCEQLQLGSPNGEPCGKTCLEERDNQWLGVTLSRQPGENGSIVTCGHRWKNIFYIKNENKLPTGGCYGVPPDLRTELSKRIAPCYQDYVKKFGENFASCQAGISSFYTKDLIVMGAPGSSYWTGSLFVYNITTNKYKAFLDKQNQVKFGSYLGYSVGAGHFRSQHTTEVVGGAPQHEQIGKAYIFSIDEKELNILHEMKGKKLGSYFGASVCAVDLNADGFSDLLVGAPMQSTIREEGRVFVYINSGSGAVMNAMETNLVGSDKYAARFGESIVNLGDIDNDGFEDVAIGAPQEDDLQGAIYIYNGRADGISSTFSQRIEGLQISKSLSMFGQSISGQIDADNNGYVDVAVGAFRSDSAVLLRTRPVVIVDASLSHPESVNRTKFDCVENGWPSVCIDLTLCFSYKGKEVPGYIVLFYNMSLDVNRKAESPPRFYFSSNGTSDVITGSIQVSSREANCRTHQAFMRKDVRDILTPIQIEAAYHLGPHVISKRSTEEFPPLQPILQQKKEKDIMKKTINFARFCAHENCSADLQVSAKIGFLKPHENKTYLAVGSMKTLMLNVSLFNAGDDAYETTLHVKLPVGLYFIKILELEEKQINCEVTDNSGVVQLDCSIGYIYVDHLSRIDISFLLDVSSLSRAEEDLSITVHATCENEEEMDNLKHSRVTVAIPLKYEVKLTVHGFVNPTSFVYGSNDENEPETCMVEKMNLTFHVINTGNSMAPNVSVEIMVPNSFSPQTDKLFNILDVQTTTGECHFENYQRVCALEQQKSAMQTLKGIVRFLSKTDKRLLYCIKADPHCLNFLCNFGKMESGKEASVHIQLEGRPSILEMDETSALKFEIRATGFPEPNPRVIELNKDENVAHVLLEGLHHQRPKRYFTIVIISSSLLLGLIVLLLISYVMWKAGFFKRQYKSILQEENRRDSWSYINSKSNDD
Sequence (P05556 21-798): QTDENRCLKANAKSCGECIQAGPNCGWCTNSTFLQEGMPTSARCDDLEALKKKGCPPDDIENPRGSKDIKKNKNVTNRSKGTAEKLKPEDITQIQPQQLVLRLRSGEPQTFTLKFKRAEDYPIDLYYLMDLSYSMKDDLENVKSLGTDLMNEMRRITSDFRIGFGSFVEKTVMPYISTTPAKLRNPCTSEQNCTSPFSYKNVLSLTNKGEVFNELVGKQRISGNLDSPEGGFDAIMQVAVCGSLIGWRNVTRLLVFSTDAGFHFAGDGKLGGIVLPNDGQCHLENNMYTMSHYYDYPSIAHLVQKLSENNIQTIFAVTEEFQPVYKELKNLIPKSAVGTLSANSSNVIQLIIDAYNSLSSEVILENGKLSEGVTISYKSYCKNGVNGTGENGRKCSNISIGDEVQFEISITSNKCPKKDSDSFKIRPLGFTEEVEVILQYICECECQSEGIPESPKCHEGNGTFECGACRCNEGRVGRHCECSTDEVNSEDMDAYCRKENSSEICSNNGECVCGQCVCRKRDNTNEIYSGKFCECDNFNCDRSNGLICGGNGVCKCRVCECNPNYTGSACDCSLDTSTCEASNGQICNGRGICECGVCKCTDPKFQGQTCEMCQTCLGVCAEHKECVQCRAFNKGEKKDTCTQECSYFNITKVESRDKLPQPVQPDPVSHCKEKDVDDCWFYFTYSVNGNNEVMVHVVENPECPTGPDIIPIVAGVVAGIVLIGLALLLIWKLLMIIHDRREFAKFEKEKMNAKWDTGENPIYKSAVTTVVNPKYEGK
Assay: cell-based
Type: cell-based
Design: host or cells: Jurkat (human T lymphoblastic line)
Protocol: Binding inhibition is measured here as a concentration of peptide that inhibits one-half the binding between a standard number of Jurkat cells and a standard amount of CS-1 peptide bound to the surface of a microtiter plate well. Those concentrations are conveniently expressed as IC50 values, smaller numbers indicating a lower concentration required to inhibit 50 percent binding and therefore greater potency. Further specifics of this assay are provided hereinafter. […]
Square brackets hold non-standard residues; d marks the D form. Peptide text beside a SMILES is read from it. * marks the point of attachment. Quinoline3carbonyl = O=C(c1cnc2ccccc2c1)*
REPORTED_METRIC: RELATIVE POTENCY (relative peptide inhibition of VLA-4 binding CS-1)

{"columns": ["COMPOUND", "TGT", "OBSERVED_MEASUREMENT"],
 "data": [
  ["CC[C@H](C)[C@H](N)C(=O)N[C@@H](CC(C)C)C(=O)N[C@@H](CC(=O)O)C(=O)N[C@@H](Cc1ccccc1)C(=O)N1CCC[C@@H]1C(N)=O [I L D F p free amine amide] (H-ILDF[dP]-NH2)", "VLA-4 (Homo sapiens, UniProt P05556+P13612)", 2],
  ["CC(C)C[C@H](N)C(=O)N[C@@H](CC(=O)O)C(=O)N[C@@H](Cc1ccccc1)C(N)=O [L D F free amine amide] (H-Leu-Asp-Phe-NH2)", "VLA-4 (Homo sapiens, UniProt P05556+P13612)", 0]
]}

P. CC(C)C[C@H](NC(=O)[C@H](N)Cc1ccccc1)C(=O)N[C@@H](CC(=O)O)C(=O)N[C@H](C(=O)N1CCC[C@@H]1C(=O)O)C(C)C [f L D V p free amine free acid] (H-[dF]LDV[dP]-OH)
Q. CC(C)C[C@H](NC(=O)c1cnc2ccccc2c1)C(=O)N[C@@H](CC(=O)O)C(=O)N[C@@H](Cc1ccccc1)C(=O)N1CCC[C@@H]1C(N)=O [X L D F p 3-quinolinecarbonyl amide] (Quinoline3carbonyl-LDF[dP]-NH2)
Of P and Q , which one carries the higher reported RELATIVE POTENCY (relative peptide inhibition of VLA-4 binding CS-1)? Give the chosen item's label as your response. Q

---

Biological target: VLA-4 (Homo sapiens, UniProt P05556+P13612)
Assay: cell-based
Type: cell-based
Set-up: host or cells: Jurkat (human T lymphoblastic line)
Protocol: Binding inhibition is measured here as a concentration of peptide that inhibits one-half the binding between a standard number of Jurkat cells and a standard amount of CS-1 peptide bound to the surface of a microtiter plate well. Those concentrations are conveniently expressed as IC50 values, smaller numbers indicating a lower concentration required to inhibit 50 percent binding and therefore greater potency. Further specifics of this assay are provided hereinafter. […]
Square brackets hold non-standard residues; d marks the D form. Peptide text beside a SMILES is read from it. * marks the point of attachment. Cha = N[C@@H](CC1CCCCC1)C(=O)O; X15 = O=S(=O)(c1cccc2cccnc12)*
REPORTED_METRIC: RELATIVE POTENCY (relative peptide inhibition of VLA-4 binding CS-1)

{"columns": ["MOLECULE", "OBSERVED_MEASUREMENT"],
 "data": [
  ["CC(C)C[C@H](NCc1ccccc1)C(=O)N[C@@H](CC(=O)O)C(=O)N[C@@H](Cc1ccccc1)C(=O)N1CCCCC1 [X L D F Z benzyl piperidinamide]", 6]
]}

A. CC[C@H](C)[C@H](N)C(=O)N[C@@H](CC1CCCCC1)C(=O)N[C@@H](CC(=O)O)C(=O)N[C@@H](Cc1ccccc1)C(=O)N1CCC[C@@H]1C(N)=O (H-I[Cha]DF[dP]-NH2)
B. CC(C)C[C@H](NS(=O)(=O)c1cccc2cccnc12)C(=O)N[C@@H](CC(=O)O)C(=O)N[C@@H](Cc1ccccc1)C(=O)N1CCC[C@@H]1C(N)=O [X L D F p 8-quinolinesulfonyl amide] (X15-LDF[dP]-NH2)
Which record shows the lower RELATIVE POTENCY (relative peptide inhibition of VLA-4 binding CS-1): the first, A , or the second, B ? Give the chosen item's label as your response. A
(A: 1, B: 3)

---

Target: VLA-4 (Homo sapiens, UniProt P05556+P13612)
Assay: cell-based
Type: cell-based
Design: host or cells: Jurkat (human T lymphoblastic line)
Conditions: normalized IC50 relative to standard peptide of SEQ ID NO:3 (=1); about one-tenth or less of the standard is assigned zero
Square brackets hold non-standard residues; d marks the D form. Peptide text beside a SMILES is read from it. * marks the point of attachment. PhAc = O=C(Cc1ccccc1)*
REPORTED_METRIC: RELATIVE POTENCY (relative peptide inhibition of VLA-4 binding CS-1)
Output: the number by itself.

{"columns": ["COMPOUND", "OBSERVED_MEASUREMENT"],
 "data": [
  ["CC(C)C[C@H](NC(=O)Cc1ccccc1)C(=O)N[C@@H](CC(=O)O)C(=O)N[C@@H](Cc1ccccc1)C(=O)N1CCNCC1 [X L D F Z phenylacetyl piperazinamide]", 506]
]}

Which value of RELATIVE POTENCY (relative peptide inhibition of VLA-4 binding CS-1) has been reported for CC(C)C[C@H](NC(=O)Cc1ccccc1)C(=O)N[C@@H](CC(=O)O)C(=O)NC1CCCCNC1=O (stereo partly shown) in the records? 27

Try this compound too: CC(C)C[C@H](NC(=O)Cc1ccccc1)C(=O)N[C@@H](CC(=O)O)C(=O)N[C@@H](Cc1c[nH]c2ccccc12)C(=O)N1CCC[C@@H]1C(N)=O [X L D W p phenylacetyl amide] (PhAc-LDW[dP]-NH2) 184

Try this compound too: CC(C)C[C@H](NC(=O)Cc1ccccc1)C(=O)N[C@@H](CC(=O)O)C(=O)NC1CCCCN(CC(N)=O)C1=O (stereo partly shown) 97

---

Biological target: VLA-4 (Homo sapiens, UniProt P05556+P13612)
Assay: cell-based
Type: cell-based
Design: host or cells: Jurkat (human T lymphoblastic line)
Conditions: normalized IC50 relative to standard peptide of SEQ ID NO:3 (=1); about one-tenth or less of the standard is assigned zero
Square brackets hold non-standard residues; d marks the D form. Peptide text beside a SMILES is read from it. * marks the point of attachment. Morpholide = C1CN(*)CCO1; PhAc = O=C(Cc1ccccc1)*; NHBu = CCCCN*
REPORTED_METRIC: RELATIVE POTENCY (relative peptide inhibition of VLA-4 binding CS-1)
Output: the number by itself.

{"columns": ["COMPOUND", "OBSERVED_MEASUREMENT"],
 "data": [
  ["CC(C)C[C@H](NC(=O)Cc1ccccc1)C(=O)N[C@@H](CC(=O)O)C(=O)N(Cc1ccccc1)Cc1ccccc1 [X L D Z phenylacetyl dibenzylamide]", 0],
  ["CC(C)C[C@H](NC(=O)Cc1ccccc1)C(=O)N[C@@H](CC(=O)O)C(=O)NC1Cc2ccccc2NC1=O (some centres unmarked)", 31],
  ["CCCCNC(=O)[C@H](Cc1ccccc1)NC(=O)[C@H](CC(=O)O)NC(=O)[C@H](CC(C)C)NC(=O)Cc1ccccc1 [X L D F Z phenylacetyl n-butylamide] (PhAc-Leu-Asp-Phe-NHBu)", 3]
]}

Which value of RELATIVE POTENCY (relative peptide inhibition of VLA-4 binding CS-1) has been reported for CC(C)C[C@H](NC(=O)Cc1ccccc1)C(=O)N[C@@H](CC(=O)O)C(=O)N[C@@H](CO)C(=O)N1CCC[C@@H]1C(N)=O [X L D S p phenylacetyl amide] (PhAc-LDS[dP]-NH2) in the records? 17

Try this compound too: CC(C)C[C@H](NC(=O)Cc1ccccc1)C(=O)N[C@@H](CC(=O)O)C(=O)N[C@@H](CC(C)C)C(=O)N1CCOCC1 [X L D L Z phenylacetyl morpholinamide] (PhAc-Leu-Asp-Leu-Morpholide) 291

---

Molecular target: VLA-4 (Homo sapiens, UniProt P05556+P13612)
Experiment: cell-based
Format: cell-based
Set-up: host or cells: Jurkat (human T lymphoblastic line)
Peptide text beside a SMILES is read from it.
REPORTED_METRIC: RELATIVE POTENCY (relative peptide inhibition of VLA-4 binding CS-1)

I. CC(=O)N[C@@H](CC(C)C)C(=O)N[C@@H](CC(=O)O)C(=O)N[C@H](C(N)=O)C(C)C [L D V acetyl amide, reference compound] (Ac-Leu-Asp-Val-NH2)
II. CC(C)C[C@H](N)C(=O)N[C@@H](CC(=O)O)C(=O)N[C@H](C(N)=O)C(C)C [L D V free amine amide, reference compound] (H-Leu-Asp-Val-NH2)
Of I and II , which one carries the higher reported RELATIVE POTENCY (relative peptide inhibition of VLA-4 binding CS-1)? Give the chosen item's label as your response. I

Origin of measurements: patent US5688913A
